target: Shiga toxin 2 (Escherichia coli O157:H7) (UniProt P09385+P09386); assay: E. coli 0.157:H7 Shiga Toxin SOP - stx2 screening assay; type: functional; set-up: scale not given: direction of the effect not stated beside the values; settings: 30 µM
Documented Percent Effect across a set of compounds
observed.property: Percent Effect (%)

{"compound": "CN(CCc1ccccc1)Cc1cc(C(=O)N2CCCC2(C)C)no1", "target": "Shiga toxin 2 (Escherichia coli O157:H7) (UniProt P09385+P09386)", "observed.property": "Percent Effect", "unit.descriptor": "%", "observed": -34.7}
{"compound": "CN(C)C(=O)CO[C@@H]1CC[C@H]2[C@H]1OCCN2C(=O)C1CCOCC1", "target": "Shiga toxin 2 (Escherichia coli O157:H7) (UniProt P09385+P09386)", "observed.property": "Percent Effect", "unit.descriptor": "%", "observed": -10.1}
{"compound": "CCN1CCCC1CN(CCN(C)C)S(=O)(=O)c1cccc(C#N)c1 (configuration not stated)", "target": "Shiga toxin 2 (Escherichia coli O157:H7) (UniProt P09385+P09386)", "observed.property": "Percent Effect", "unit.descriptor": "%", "observed": -21}
{"compound": "O=C(CC1CCCC1)N1CCCC(c2n[nH]c3nccnc23)C1 (configuration not stated)", "target": "Shiga toxin 2 (Escherichia coli O157:H7) (UniProt P09385+P09386)", "observed.property": "Percent Effect", "unit.descriptor": "%", "observed": 19.5}
{"compound": "Cn1ccnc1-c1ccccc1C(=O)N1CCc2c(nc(N)[nH]c2=O)C1", "target": "Shiga toxin 2 (Escherichia coli O157:H7) (UniProt P09385+P09386)", "observed.property": "Percent Effect", "unit.descriptor": "%", "observed": -35.7}
{"compound": "Cc1ccc(CN2C[C@@H]3COC[C@@H](NS(C)(=O)=O)[C@@H]3C2)o1", "target": "Shiga toxin 2 (Escherichia coli O157:H7) (UniProt P09385+P09386)", "observed.property": "Percent Effect", "unit.descriptor": "%", "observed": -1.23}
{"compound": "O=S1(=O)COCCN1Cc1ccc(Cl)c(F)c1", "target": "Shiga toxin 2 (Escherichia coli O157:H7) (UniProt P09385+P09386)", "observed.property": "Percent Effect", "unit.descriptor": "%", "observed": -5.38}
{"compound": "CC(C)n1cc(C(=O)N2Cc3ccccc3OC3(CCOCC3)C2)cn1", "target": "Shiga toxin 2 (Escherichia coli O157:H7) (UniProt P09385+P09386)", "observed.property": "Percent Effect", "unit.descriptor": "%", "observed": -21.7}
{"compound": "CCn1cc2c(n1)CN(Cc1ccncc1)CC2COCC1CC1 (configuration not stated)", "target": "Shiga toxin 2 (Escherichia coli O157:H7) (UniProt P09385+P09386)", "observed.property": "Percent Effect", "unit.descriptor": "%", "observed": -18.6}
{"compound": "N#Cc1ccc(CN2CCN(C(=O)C3CCC3)[C@@H]3CS(=O)(=O)C[C@@H]32)cc1", "target": "Shiga toxin 2 (Escherichia coli O157:H7) (UniProt P09385+P09386)", "observed.property": "Percent Effect", "unit.descriptor": "%", "observed": -34.5}
{"compound": "Cc1cccc(OCCNC(=O)CN2CCCC2Cn2cccn2)c1 (configuration not stated)", "target": "Shiga toxin 2 (Escherichia coli O157:H7) (UniProt P09385+P09386)", "observed.property": "Percent Effect", "unit.descriptor": "%", "observed": -0.164}
{"compound": "Cn1cnc2c1CCN(CCCc1ccccc1)C2", "target": "Shiga toxin 2 (Escherichia coli O157:H7) (UniProt P09385+P09386)", "observed.property": "Percent Effect", "unit.descriptor": "%", "observed": 1.04}
{"compound": "Cc1cnn(CC2CN(Cc3nccn3C)CCO2)c1 (configuration not stated)", "target": "Shiga toxin 2 (Escherichia coli O157:H7) (UniProt P09385+P09386)", "observed.property": "Percent Effect", "unit.descriptor": "%", "observed": 17.1}
{"compound": "Cc1cn(-c2ccccc2)nc1NS(=O)(=O)c1cc(C(=O)O)cs1", "target": "Shiga toxin 2 (Escherichia coli O157:H7) (UniProt P09385+P09386)", "observed.property": "Percent Effect", "unit.descriptor": "%", "observed": -40}
{"compound": "COC(=O)Cn1c(=O)nc2n1C(=O)N(c1ccc(Cl)cc1)C2", "target": "Shiga toxin 2 (Escherichia coli O157:H7) (UniProt P09385+P09386)", "observed.property": "Percent Effect", "unit.descriptor": "%", "observed": -16.1}
{"compound": "CN1CCN(C[C@@H]2CN(C(=O)c3ccccc3C#N)C[C@@H]2CO)CC1", "target": "Shiga toxin 2 (Escherichia coli O157:H7) (UniProt P09385+P09386)", "observed.property": "Percent Effect", "unit.descriptor": "%", "observed": -8.04}
{"compound": "COc1ccc(CCN2CCC(N3CCN(C)C3=O)CC2)cc1", "target": "Shiga toxin 2 (Escherichia coli O157:H7) (UniProt P09385+P09386)", "observed.property": "Percent Effect", "unit.descriptor": "%", "observed": 0.371}
{"compound": "O=C1CN(Cc2nnc(-c3ccc(Br)o3)o2)CCN1", "target": "Shiga toxin 2 (Escherichia coli O157:H7) (UniProt P09385+P09386)", "observed.property": "Percent Effect", "unit.descriptor": "%", "observed": -65.1}
{"compound": "CC(Cn1ccnc1)NC(=O)C1(c2ccc(F)cc2)CC1 (configuration not stated)", "target": "Shiga toxin 2 (Escherichia coli O157:H7) (UniProt P09385+P09386)", "observed.property": "Percent Effect", "unit.descriptor": "%", "observed": 2.06}
{"compound": "CS(=O)(=O)NCC1CCCN(C(=O)Nc2cccnc2N2CCCC2)C1 (configuration not stated)", "target": "Shiga toxin 2 (Escherichia coli O157:H7) (UniProt P09385+P09386)", "observed.property": "Percent Effect", "unit.descriptor": "%", "observed": -16.6}
{"compound": "CCN1CCN(C2CCN(Cc3nc(-c4ccoc4)no3)CC2)C1=O", "target": "Shiga toxin 2 (Escherichia coli O157:H7) (UniProt P09385+P09386)", "observed.property": "Percent Effect", "unit.descriptor": "%", "observed": 22.7}
{"compound": "COCC(=O)N1CCCC1c1cc(Nc2nnc(C)s2)nc(C)n1 (configuration not stated)", "target": "Shiga toxin 2 (Escherichia coli O157:H7) (UniProt P09385+P09386)", "observed.property": "Percent Effect", "unit.descriptor": "%", "observed": -14.2}
{"compound": "CCc1ncc2c(n1)CN(Cc1nc(-c3ccsc3)no1)CC2", "target": "Shiga toxin 2 (Escherichia coli O157:H7) (UniProt P09385+P09386)", "observed.property": "Percent Effect", "unit.descriptor": "%", "observed": 13.8}
{"compound": "COCC1CN(C(=O)c2ccnnc2)Cc2c1cnn2C (configuration not stated)", "target": "Shiga toxin 2 (Escherichia coli O157:H7) (UniProt P09385+P09386)", "observed.property": "Percent Effect", "unit.descriptor": "%", "observed": -14.3}
{"compound": "CCOCCN1CCn2c(C)nnc2C1", "target": "Shiga toxin 2 (Escherichia coli O157:H7) (UniProt P09385+P09386)", "observed.property": "Percent Effect", "unit.descriptor": "%", "observed": -30.6}
{"compound": "NC(=O)c1cc(C2CCCN(C(=O)CCc3ccsc3)C2)n[nH]1 (configuration not stated)", "target": "Shiga toxin 2 (Escherichia coli O157:H7) (UniProt P09385+P09386)", "observed.property": "Percent Effect", "unit.descriptor": "%", "observed": 21.2}
{"compound": "Cc1ccc(-n2nnc(C(=O)Nc3cc(C)nn3C)c2C2CC2)cc1", "target": "Shiga toxin 2 (Escherichia coli O157:H7) (UniProt P09385+P09386)", "observed.property": "Percent Effect", "unit.descriptor": "%", "observed": 34.4}
{"compound": "CC(C)c1cc(NC(=O)CN2CCc3ccccc3C2)on1", "target": "Shiga toxin 2 (Escherichia coli O157:H7) (UniProt P09385+P09386)", "observed.property": "Percent Effect", "unit.descriptor": "%", "observed": -13}
{"compound": "CN(C)C(=O)CSc1nnc(CCNC(=O)OC(C)(C)C)o1", "target": "Shiga toxin 2 (Escherichia coli O157:H7) (UniProt P09385+P09386)", "observed.property": "Percent Effect", "unit.descriptor": "%", "observed": -59.4}
{"compound": "Cc1csc(N2CCN(CCc3ccccn3)CC2C)n1 (configuration not stated)", "target": "Shiga toxin 2 (Escherichia coli O157:H7) (UniProt P09385+P09386)", "observed.property": "Percent Effect", "unit.descriptor": "%", "observed": -7.75}
{"compound": "N#Cc1ncn(CCC(=O)Nc2c(Cl)cccc2Cl)n1", "target": "Shiga toxin 2 (Escherichia coli O157:H7) (UniProt P09385+P09386)", "observed.property": "Percent Effect", "unit.descriptor": "%", "observed": -17.7}
{"compound": "O=C(C1CCCCN1Cc1nc(-c2ccco2)no1)N1CCCC1 (configuration not stated)", "target": "Shiga toxin 2 (Escherichia coli O157:H7) (UniProt P09385+P09386)", "observed.property": "Percent Effect", "unit.descriptor": "%", "observed": 27.5}
{"compound": "Cc1ncsc1C(=O)NC1CCN(CC(=O)NCc2ccccc2)CC1", "target": "Shiga toxin 2 (Escherichia coli O157:H7) (UniProt P09385+P09386)", "observed.property": "Percent Effect", "unit.descriptor": "%", "observed": 34.9}
{"compound": "COCC1c2nnn(CC3CC3)c2CCN1C(=O)c1cccc(F)c1 (configuration not stated)", "target": "Shiga toxin 2 (Escherichia coli O157:H7) (UniProt P09385+P09386)", "observed.property": "Percent Effect", "unit.descriptor": "%", "observed": 7.97}
{"compound": "CCC(C)NC(=O)NCCCn1nc2ccccn2c1=O (configuration not stated)", "target": "Shiga toxin 2 (Escherichia coli O157:H7) (UniProt P09385+P09386)", "observed.property": "Percent Effect", "unit.descriptor": "%", "observed": 22.8}
{"compound": "Cc1cc(C(=O)N2CCC3(CCCN(CC4CC4)C3=O)C2)c(C)n1C (configuration not stated)", "target": "Shiga toxin 2 (Escherichia coli O157:H7) (UniProt P09385+P09386)", "observed.property": "Percent Effect", "unit.descriptor": "%", "observed": -7.28}
{"compound": "CC(C)NC(=O)C(c1ccccc1)N1CCn2c(nnc2C2CC2)C1 (configuration not stated)", "target": "Shiga toxin 2 (Escherichia coli O157:H7) (UniProt P09385+P09386)", "observed.property": "Percent Effect", "unit.descriptor": "%", "observed": 13}
{"compound": "O=S(=O)(NC1=NCN(CCc2cccs2)CN1)c1ccc(F)cc1", "target": "Shiga toxin 2 (Escherichia coli O157:H7) (UniProt P09385+P09386)", "observed.property": "Percent Effect", "unit.descriptor": "%", "observed": -18.8}
{"compound": "c1cnc2c(c1)cc(C1CCOCC1)n2CCN1CCOCC1", "target": "Shiga toxin 2 (Escherichia coli O157:H7) (UniProt P09385+P09386)", "observed.property": "Percent Effect", "unit.descriptor": "%", "observed": 4.5}
{"compound": "CCC1=N[C@@]2(CC[C@@H]3CN(Cc4ccccc4F)C[C@@H]32)C(=O)N1CC", "target": "Shiga toxin 2 (Escherichia coli O157:H7) (UniProt P09385+P09386)", "observed.property": "Percent Effect", "unit.descriptor": "%", "observed": -13.9}
{"compound": "N#Cc1ccc(C(=O)N2CCC3(CC2)C(=O)Nc2ccccc23)cn1", "target": "Shiga toxin 2 (Escherichia coli O157:H7) (UniProt P09385+P09386)", "observed.property": "Percent Effect", "unit.descriptor": "%", "observed": 1.52}
{"compound": "Cc1ccc2c(c1)c(CNC(=O)C1CC(=O)N(C3CCCC3)C1)nn2C (configuration not stated)", "target": "Shiga toxin 2 (Escherichia coli O157:H7) (UniProt P09385+P09386)", "observed.property": "Percent Effect", "unit.descriptor": "%", "observed": -18}
{"compound": "Cc1nccc(N2CCC(=O)N(Cc3ccc(F)cc3)C(C(C)C)C2)n1 (configuration not stated)", "target": "Shiga toxin 2 (Escherichia coli O157:H7) (UniProt P09385+P09386)", "observed.property": "Percent Effect", "unit.descriptor": "%", "observed": -4.25}
{"compound": "O=C(C1CCC1)N1CCN(C(=O)c2cnccn2)[C@H]2CS(=O)(=O)C[C@H]21", "target": "Shiga toxin 2 (Escherichia coli O157:H7) (UniProt P09385+P09386)", "observed.property": "Percent Effect", "unit.descriptor": "%", "observed": -12.2}
{"compound": "CCCc1nc(C)cc(N2CCC3(CCC(=O)N(CCOC)C3)CC2)n1", "target": "Shiga toxin 2 (Escherichia coli O157:H7) (UniProt P09385+P09386)", "observed.property": "Percent Effect", "unit.descriptor": "%", "observed": -2.13}
{"compound": "Cn1cc(N2CCC(NC(=O)c3c(F)cccc3F)C2=O)cn1 (configuration not stated)", "target": "Shiga toxin 2 (Escherichia coli O157:H7) (UniProt P09385+P09386)", "observed.property": "Percent Effect", "unit.descriptor": "%", "observed": -11.8}
{"compound": "Cn1ccnc1CN1CCC2(CC1)CC(NC(=O)c1ccccn1)CO2 (configuration not stated)", "target": "Shiga toxin 2 (Escherichia coli O157:H7) (UniProt P09385+P09386)", "observed.property": "Percent Effect", "unit.descriptor": "%", "observed": -19.4}

Data provenance: ChEMBL document CHEMBL3988442
